B1: human ACKR4-EYFP [human] / fluorescently labeled human CCL19^Dy649P1 [modified: Dy649P1 (as CoA conjugate) attached site-specifically to the S6-tag by the phosphopantetheinyl transferase Sfp; Dy649P1 (as CoA conjugate) … (parent)
chain 1: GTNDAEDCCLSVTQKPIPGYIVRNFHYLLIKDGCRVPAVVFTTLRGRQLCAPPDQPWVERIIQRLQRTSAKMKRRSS
chain 2: MALEQNQSTDYYYEENEMNGTYDYSQYELICIKEDVREFAKVFLPVFLTIVFVIGLAGNSMVVAIYAYYKKQRTKTDVYILNLAVADLLLLFTLPFWAVNAVHGWVLGKIMCKITSALYTLNFVSGMQFLACISIDRYVAVTKVPSQSGVGKPCWIICFCVWMAAILLSIPQLVFYTVNDNARCIPIFPRYLGTSMKALIQMLEICIGFVVPFLIMGVCYFITARTLMKMPNIKISRPLKVLLTVVIVFIVTQLPYNIVKFCRAIDIIYSLITSCNMSKRMDIAIQVTESIALFHSCLNPILYVFMGASFKNYVMKVAKKYGSWRRQRQSVEEFPFDSEGPTEPTSTFSI

# Variants of: B1
# measurement.notes: flow cytometry on cells
# condition: with fluorescently labeled human CCL19^Dy649P1 [modified: Dy649P1 (as CoA conjugate) attached site-specifically to the S6-tag by the phosphopantetheinyl transferase; 25 nM CCL19Dy649P1 at 8°C; HeLa cells; read off a plot
quantity.name: percent of parent

>>> result("chain 2 S309A")
"110 % of wt"
>>> result("chain 2 S148A")
"85 % of wt"

q: Form field: reported percent of parent of chain 2 T142A T226A S309A S323A S330A
a: 110 % of wt

q: Follow-up item: chain 2 S323A
a: 87 % of wt
